The measured values listed here are drawn from ChEMBL document CHEMBL1201862.

# Tested on: HCC 2998
# testDetails: NCI tumour cell line growth inhibition, 48 h
The source made the active and inactive calls. No stated cut-off is given here; in the data, active = GI50 up to about 1.1 µM and inactive = higher.
Readings of GI50 for the listed molecules
endpointName: GI50

• O=C1CSC(c2cccc([N+](=O)[O-])c2)N1c1ccc(-n2c(-c3ccccc3)nc3ccccc3c2=O)cc1 (centres undefined) = 63.7 µM (inactive)
• Cc1ncc(CO)c(CN)c1O = > 100 µM (inactive)
• C[n+]1ccc(/C2=C3\C=CC(=N3)/C(c3cc[n+](C)cc3)=c3/cc/c([nH]3)=C(\c3cc[n+](C)cc3)C3=N/C(=C(/c4cc[n+](C)cc4)C4C=CC2N4)C=C3)cc1 = 84.7 µM (inactive)
• C=C1C(=O)OC2C3C(=C)[C@@H](OC(C)=O)CC3C(C)=CC(OC(=O)C(C)(OC(C)=O)C(C)OC(C)=O)[C@@H]12 (some centres undefined) = 18.6 µM (inactive)
• CN1C(=O)CC2CCC(=O)N2c2cccnc21 (centres undefined) = > 100 µM (inactive)
• COC(=O)C1=C(C(=O)NNc2ccccc2)N(c2cccnc2Cl)C(c2ccccc2)=CC1c1ccccc1 (centres undefined) = 60.3 µM (inactive)
• O=S(=O)(O)c1ccc(/N=N/c2ccc(/N=N/c3c(O)ccc4cc(S(=O)(=O)O)ccc34)cc2)cc1 = > 100 µM (inactive)
• C=C[C@@]1(C)CC2CC[C@]3(C)C(C)=CC(=O)CC3[C@]2(C)CC1O (some centres undefined) = > 100 µM (inactive)
• Cc1n[nH]c(=O)n1C1CCCC1 = > 100 µM (inactive)
• Nc1cc(-c2ccccc2)nn1-c1nsc2ccccc12 = > 100 µM (inactive)
• CC(=O)OC(C)c1cc2c(s1)C(=O)c1c(C(C)OC(C)=O)csc1C2=O (centres undefined) = 1.73 µM (inactive)
• O=c1cc(C(F)(F)F)c2cc3c(cc2o1)NCCC3 = > 100 µM (inactive)
• CSc1ccc2c(cc1=O)[C@@H](NC(=O)c1ccc([N+](=O)[O-])cc1)CCc1cc(O)c(O)c(O)c1-2 = > 100 µM (inactive)
• CC(C)(C)OC(=O)Nc1nnc(S(N)(=O)=O)s1 = > 100 µM (inactive)

---

# System: NCI-H460
# testDetails: NCI tumour cell line growth inhibition, 48 h
The source made the active and inactive calls. Cut-off read from the data, not from the text of the source: active = GI50 up to about 1.1 µM and inactive = higher.
Outcomes: active, inactive

- COc1ccc2c(c1)[n+]([O-])c(-c1ccc(C)cc1)c(N)[n+]2[O-]: inactive
- CCN(CC)C(=S)SS(=O)(=O)c1ccc(C)cc1: inactive
- C=CCNc1nc2c(N)ncnc2s1: inactive
- COC(=O)/C=C\C(C#N)(C#N)/N=C/c1ccc(C)s1: inactive
- OC(Cc1cccnc1)(c1ccccc1)c1ccccc1: inactive
- O=C1CSC(c2cccc([N+](=O)[O-])c2)N1c1ccc(-n2c(-c3ccccc3)nc3ccccc3c2=O)cc1 (stereo not drawn): inactive
- COc1ccc(/C=C/C(=O)c2c(-c3ccccc3)nn(C)c(=O)c2N2CCOCC2)cc1: inactive
- Nc1ncnc2c(C3OC(CO)C(O)C3O)scc12 (stereo not drawn): active
- CCC(=C(C#N)C#N)c1cc(OC)c(OC)c(OC)c1: inactive
- COc1cc2c(cc1OC)C(SC)C(=O)N(Cc1cccc(OC)c1OC)CC2 (stereo not drawn): active
- O=C(Nc1ccc([N+](=O)[O-])cc1)Nn1cnnc1: inactive
- COc1cc(/C=C2/C(=O)N/C(=N\C(C)=O)N2C)ccc1OC(C)=O: inactive
- Cc1cc(C)n(C(=O)CSc2nc3ccc(I)cc3c(=O)n2Cc2ccccc2)n1: inactive
